system: UO-31 renal; assay: NCI tumour cell line growth inhibition, 48 h

| molecule | TGI |
| --- | --- |
| COc1cc(Cl)cc(N(O)C(C)=O)c1OCc1ccccc1 | > 100 µM |
| COc1ccc(C/C(C)=C(\c2ccc(OCCN3CCOCC3)cc2)c2ccc(OC(=O)Cc3ccccc3)cc2)cc1 | 0.952 µM |
| CCCCCCCCCCCCCCCC[N+](C)(C)CCN(Cc1ccc(OC)cc1)c1ncccn1 | 52.9 µM |
| COc1cc(NCc2ccc3nc(-c4ccccc4)c(N)nc3c2)cc(OC)c1OC | > 100 µM |
| COc1ccc(C2C(=O)C(Cl)N2Nc2nc(C)cc(=O)[nH]2)cc1OC (stereo not given) | > 100 µM |
| N#CCCSC1SC(=C2SC3=C(SCCS3)S2)SC1SCCC#N (stereo not given) | > 100 µM |
| Cc1nc(-n2[nH]c(C)c(CCO)c2=O)[nH]c(=O)c1CCO | > 100 µM |
| Cn1c(=O)c(Oc2ccc(F)cc2F)cc2cnc(NC(CO)CO)nc21 | > 25 µM |
| O=C(N/N=C/c1ccc([N+](=O)[O-])cc1)c1cccc2nc3ccccc3nc12 | > 100 µM |
| COc1cc(/C=C/C(=O)OC2C(O)C3CC(OC(=O)c4cc(OC)c(OC)c(OC)c4)CC2N3C)cc(OC)c1OC (stereo not given) | > 50 µM |

###

Some molecules, each annotated with its measured TGI.
test system: ACHN renal; assay: NCI tumour cell line growth inhibition, 48 h
property-name: TGI

| molecule | observed-value |
| --- | --- |
| Nc1ccc(C(=O)NN2C(=O)C(Cl)C2c2cc(Br)ccc2O)cc1 (stereo not drawn) | > 100 µM |
| COc1ccc2oc(=O)cc(C)c2c1 | > 100 µM |
| CCOC(=O)NC(C(=O)OCC)C(F)(F)F (stereo not drawn) | > 100 µM |

###

tested on: HL-60(TB) leukemia; assay: NCI tumour cell line growth inhibition, 48 h
TGI values, listed per item

| compound | TGI |
| --- | --- |
| O=C(O)CSCC(=O)O | > 100 µM |
| CC(O)(/C=C/c1ccccc1)P(=O)(O)c1ccccc1 (centres undefined) | > 100 µM |
| CCOC(=O)c1cc(C2CCN(CC(C)CC)C2=S)c(-c2cc(C)no2)[nH]1 (centres undefined) | > 100 µM |
| COc1ccc(C(=O)COc2cccc(/C=C3\CSc4ccccc4C3=O)c2)cc1 | > 23.2 µM |
| Cc1nn(C(=O)c2ccncc2)c2c1C(c1ccc(Cl)cc1)SC(N)=N2 (centres undefined) | > 10 µM |
| CS(=O)(=O)c1ccc(-c2cnc(N)c(C(=O)Nc3ccccc3)n2)cc1 | > 100 µM |
| NC(=NC1CCCCCCC1)c1ccc(N2CCN(c3ccc(C(N)=NC4CCCCCCC4)cc3)CC2)cc1 | > 100 µM |
| O=C(/C=C/c1cccs1)c1ccc(Nc2nc(Nc3ccc(F)cc3)nc(Nc3ccc(F)cc3)n2)cc1 | > 100 µM |
| CC(=O)OC1COC(n2nc(/C=C/c3ccc(Cl)cc3)c(=O)n(/N=C/c3ccccc3)c2=S)C(OC(C)=O)C1OC(C)=O (centres undefined) | > 100 µM |
| Cc1nc2cnc3cc(F)c(-c4ccc(Oc5ncccn5)cc4Cl)cc3c2n1[C@H]1CCN(C(=O)CO)C[C@@H]1F | 1.69 µM |
| Cc1ccc(NC(=O)c2cc3ccccc3c(N=Nc3ccccc3O)c2O)c(C)c1 | 4.09 µM |
| O=C1c2ccc3c4c5ccc(c24)C(=O)N1CCCOCCCCOCCCNCc1ccc(cc1)CNCCCOCCCCOCCCN(C3=O)C5=O | 2.03 µM |
| CN1CCN(c2nc(NCCCCNc3ccnc4cc(Cl)ccc34)c3ccccc3n2)CC1 | 4.23 µM |
| CC1CC2C(=O)N(c3ccccc3)C(=O)C2c2c1c1ccccc1n2Cc1ccccc1 (centres undefined) | > 100 µM |
